Tested on: HGGX39 (paediatric high-grade glioma line)
EXPERIMENT SUMMARY: growth inhibition (% activity, log2 RLU normalised to DMSO / staurosporine); higher = more growth inhibition
EXPERIMENTAL SETUP: 33 µM
QUANTITY: growth inhibition (%)
Quick reminder: number only, in %, skip the unit.

Worked examples, 4 compounds total:
- COMPOUND: "COc1ccc(CNc2nc(N3CCC[C@H]3CO)ncc2C(=O)NCc2ncccn2)cc1Cl"
  growth inhibition (%): -0.964
- COMPOUND: "CC(=O)OCC(CCn1cnc2cnc(N)nc21)COC(C)=O"
  growth inhibition (%): -5.59
- COMPOUND: "CO[C@@]1(NC(=O)C(C(=O)O)c2ccc(O)cc2)C(=O)N2C(C(=O)O)=C(CSc3nnnn3C)CO[C@@H]21 (some centres not stated)"
  growth inhibition (%): -0.0428
- COMPOUND: "Cc1cccn2c(=O)c(-c3nnn[nH]3)cnc12"
  growth inhibition (%): 1.29

Problem: Give HGGX39 growth inhibition for the following compound: COC(=O)C1=C(C)NC(C)=C(C(=O)OCC(C)C)C1c1ccccc1[N+](=O)[O-] (configuration not stated)
Result: 5

Problem: Give HGGX39 growth inhibition for the following compound: `CCOC(=O)C1=C[C@]2(CC)CCCN3CCc4c(n1c1ccccc41)[C@@H]32`
Result: 0.726

Problem: Give HGGX39 growth inhibition for the following compound: `CCC(CC)[C@H](NC(C)=O)[C@@H]1[C@H](O)[C@@H](C(=O)O)C[C@H]1NC(=N)N`
Result: -1.05

Problem: Give HGGX39 growth inhibition for the following compound: `CC1(C)S[C@@H]2[C@H](NC(=O)[C@H](NC(=O)N3CCN(S(C)(=O)=O)C3=O)c3ccccc3)C(=O)N2[C@H]1C(=O)O`
Result: -0.656

Problem: Give HGGX39 growth inhibition for the following compound: `CC(C)C(=O)Oc1ccc(CO)cc1[C@H](CCN(C(C)C)C(C)C)c1ccccc1`
Result: 1.59

Problem: Give HGGX39 growth inhibition for the following compound: `C=CCc1cc(OC)c(O)c(C(=O)NCCO)c1`
Result: -1.9

Problem: Give HGGX39 growth inhibition for the following compound: `CCc1oc2ccccc2c1C(=O)c1cc(Br)c(O)c(Br)c1`
Result: -0.416

Problem: Give HGGX39 growth inhibition for the following compound: CN(C)CCC(c1ccc(Cl)cc1)c1ccccn1 (racemic)
Result: 3.68

Problem: Give HGGX39 growth inhibition for the following compound: `NC(=O)c1cccnc1`
Result: 0.786

Problem: Give HGGX39 growth inhibition for the following compound: CCN1CCCC1CNC(=O)c1cc(S(N)(=O)=O)ccc1OC (configuration not stated)
Result: 2.29

Problem: Give HGGX39 growth inhibition for the following compound: CCCC(=O)OCOC(=O)C1=C(C)NC(C)=C(C(=O)OC)C1c1cccc(Cl)c1Cl (configuration not stated)
Result: 4.32

Problem: Give HGGX39 growth inhibition for the following compound: `CC(C)(C#N)c1cc(Cn2cncn2)cc(C(C)(C)C#N)c1`
Result: 0.325

Problem: Give HGGX39 growth inhibition for the following compound: `O=C(CCCN1CCN(c2ccccn2)CC1)c1ccc(F)cc1`
Result: 4.4

* * *

Reported growth inhibition by item:
Test system: DIPGX9 (diffuse intrinsic pontine glioma line)
EXPERIMENT SUMMARY: growth inhibition (% activity, log2 RLU normalised to DMSO / staurosporine); higher = more growth inhibition
EXPERIMENTAL SETUP: 33 µM
Quick reminder: number only, in %, skip the unit.

Worked examples, 5 compounds total:
- COMPOUND: "CCCN(CCC)S(=O)(=O)c1ccc(C(=O)O)cc1"
  ASSAY TARGET: "DIPGX9"
  growth inhibition, %: 0.0871
- COMPOUND: "CC(C(=O)O)c1ccc2c(c1)Cc1cccnc1O2 (stereo unspecified)"
  ASSAY TARGET: "DIPGX9"
  growth inhibition, %: 1.73
- COMPOUND: "NNC(=O)c1ccncc1.Nc1ccc(C(=O)O)c(O)c1"
  ASSAY TARGET: "DIPGX9"
  growth inhibition, %: 2.6
- COMPOUND: "CCCCc1nc(Cl)c(CO)n1Cc1ccc(-c2ccccc2-c2nnn[nH]2)cc1"
  ASSAY TARGET: "DIPGX9"
  growth inhibition, %: 0.985
- COMPOUND: "CCN(CC)C(=S)SSC(=S)N(CC)CC"
  ASSAY TARGET: "DIPGX9"
  growth inhibition, %: 10.8

Problem: Supply measured growth inhibition of `CC(=O)N[C@@H](CS)C(=O)O` in your reply.
Result: -0.364

Where these numbers come from: the supplement of paper PMC8253809
